B1: WSB1 (parent)
chain: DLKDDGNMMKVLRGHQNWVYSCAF

Variants of: B1
Experiment: protein stability index of a GFP-peptide fusion (GPS, HEK-293T) (PSI 1-6); higher = more stable;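 further: lentivirally expressed fusions sorted by FACS into six bins by GFP to DsRed ratio, PSI derived from sequencing read proportions per bin multiplied by bin number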
Details: c terminus: a fixed tail appended
Kindly supply the reported protein stability index values for the records listed here.
Respond numerically, and do not add a unit to the figure.

Quick note, protein stability index for `H15N` landed at 2.81

Quick note, protein stability index for `Q16D` landed at 1.71

Quick note, protein stability index for `G6D` landed at 1.94

Quick note, protein stability index for `D4I` landed at 2.67

Quick note, protein stability index for `M9L` landed at 1.61

Quick note, protein stability index for `N7S` landed at 1.9

Quick note, protein stability index for `L2N` landed at 2.53

Quick note, protein stability index for `W18K` landed at 1.46

Quick note, protein stability index for `A23M` landed at 1.44

Quick note, protein stability index for `F24S` landed at 2.89

Quick note, protein stability index for `G14Y` landed at 2.35

Quick note, protein stability index for `K3R` landed at 1.48

Quick note, protein stability index for `G6A` landed at 2.03

Quick note, protein stability index for `F24A` landed at 2.14

Quick note, protein stability index for `Y20C` landed at 3.17

Quick note, protein stability index for `V11W` landed at 2

Quick note, protein stability index for `F24N` landed at 2.18

Quick note, protein stability index for `H15S` landed at 1.88

Quick note, protein stability index for `R13Q` landed at 2.45

Quick note, protein stability index for `M8H` landed at 2.34

Quick note, protein stability index for `N7M` landed at 3.16

Quick note, protein stability index for `N17S` landed at 1.81

Quick note, protein stability index for `K10S` landed at 1.96

Quick note, protein stability index for `V11A` landed at 1.75

Quick note, protein stability index for `M8N` landed at 2.29

Quick note, protein stability index for `V19I` landed at 2.13

Quick note, protein stability index for `N7I` landed at 3.63

Quick note, protein stability index for `N17Q` landed at 2.95

Quick note, protein stability index for `N7E` landed at 1.66

Quick note, protein stability index for `M8V` landed at 1.54

Quick note, protein stability index for `Y20S` landed at 1.83

Quick note, protein stability index for `C22M` landed at 2.61

Quick note, protein stability index for `D1G` landed at 1.76

Quick note, protein stability index for `K10A` landed at 2.38

Quick note, protein stability index for `V19T` landed at 1.71

From: the supplement of paper PMC10567573
